# TEST_TARGET: T1, Glycoprotein VI extracellular domain (Gln21-Lys267) (Homo sapiens, UniProt Q9HCN6 SEQ:1-247)
# T1 chain: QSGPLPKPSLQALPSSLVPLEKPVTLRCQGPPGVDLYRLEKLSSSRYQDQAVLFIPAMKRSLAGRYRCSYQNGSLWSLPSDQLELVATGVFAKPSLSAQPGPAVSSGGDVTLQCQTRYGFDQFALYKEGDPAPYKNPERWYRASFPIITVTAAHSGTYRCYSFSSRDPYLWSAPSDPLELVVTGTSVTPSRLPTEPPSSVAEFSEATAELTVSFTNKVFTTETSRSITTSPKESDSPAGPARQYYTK
# EXPERIMENT_SUMMARY: filter
# CONDITIONS: tags: C-terminal His6; R&D Systems 3627-GP; label: 5'-32P
# Protocol: Enrichment of the ligand libraries for GPVI was monitored in direct binding studies utilizing radiolabeled ligand RNA from respective rounds of SELEX and soluble GPVI. […] The membranes were exposed to a phosphorimager screen, scanned, and quantitated with a Molecular Dynamics Storm 840 Phosphorimager. The fraction bound was calculated by dividing the counts on the nitrocellulose by the total counts and adjusting for the background. […]
pKd: −log10 of the molar value.
Answer each item with its documented pKd.

The binder identified as GGGAGGACGGCGCUAACGCCUGGCAUAAGCCUCCC (ssRNA, RB448 with 2'-OMe at most of Stem 1 (G1,G2,G3,A4 and 3' partners)) [RB452] registered its pKd at 7.81

# pKd (binder: GGGAGGACGGCGCGCCUGGCAUAAGCCUCCC (ssRNA, RB490 with 2'-OMe C15) [RB500] ) is > 8.00

Value of measured pKd for the entry GGGAGGACGGCGCGCCUGGCAUAAGCCUCCC (ssRNA, RB524 with 2'-OMe A7, 2'-deoxy G9) [RB528] : < 7.40

Record GGAGGACGGCGCGCCUGGCAUAAGCCUCC (ssRNA, RB540 with PS G9-C10) [RB550] . Reported pKd: > 8.00

pKd reading for GGGAGGACGGCGCUAACGCCUGGCAUAAGCCUCCC (ssRNA, RB448 with 2'-OMe G23,C30) [RB462] : > 8.00

// GGGAGGACGGCGCGCCUGGCAUAAGCCUCCC (ssRNA, RB490 with 2'-OMe C8) [RB493] : pKd value = 7.81
